System: primary hepatocytes isolated from rats
Assay: Hepatocyte protective effect against doxorubicin treatment (cell viability, WST-1)
Assay type: cell-based
Conditions: Hepatocyte, primary rat hepatocytes pretreated with compound for 30 min, viability by WST-1 after 24-48 hours
Below, each entry is listed alongside its reported EC50.
MEASUREMENT KIND: EC50 (nM)

# MOLECULE, MEASUREMENT KIND, MEASUREMENT
data = [
    ("Clc1cc(NC2CCCC2)c2[nH]c(C3CCNCC3)cc2c1 [Example 48]", "EC50", 210),
    ("O=C1CN(CCc2cc3cc(Cl)cc(NCc4ccccc4)c3[nH]2)CCN1 [Example 14]", "EC50", 300),
    ("O=C1CN(Cc2cc3cc(Cl)cc(NC4CCCC4)c3[nH]2)CCN1 [Example 1]", "EC50", 160),
    ("Cc1cc(NC2CCCC2)c2[nH]c(CN3CCS(=O)(=O)CC3)cc2c1 [Example 8]", "EC50", 240),
    ("CC(=O)N1CCC(Nc2cc(Cl)cc3cc(CCN4CCNC(=O)C4)[nH]c23)CC1 [Example 3]", "EC50", 270),
    ("O=C1CN(CCc2cc3cc(Cl)cc(NCC4CCOCC4)c3[nH]2)CCN1 [Example 22]", "EC50", 900),
    ("O=S1(=O)CCN(CCc2cc3cc(Cl)cc(NC4CCCC4)c3[nH]2)CC1 [Example 19]", "EC50", 270),
    ("Cc1cc(NCC2CCOCC2)c2[nH]c(CN3CCS(=O)(=O)CC3)cc2c1 [Example 7]", "EC50", 440),
]
